- procedure-text: chemical genetic growth profiling, strain panel (AID 1159580);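 further: tested at 20 µM; growth read once vehicle control cultures reached saturation at 30 °C; 1 = growth at the plate median or of vehicle wells; lower values mean less growth of the strain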
- particulars: S. cerevisiae deletion strains, growth OD, locus YOR316C, strain cot1
Hit rate of the full screen: of about 5,500 compounds, about 2,000 (36%) were called active. Inconclusive results (about 18%) are left out. No stated cut-off is given here; in the data, active means normalized growth mostly below about 0.91 (no sharp cut-off); inconclusive means no clear call, values can overlap the other calls; inactive means mostly above about 0.92. This is one part of the list.
Please state which outcome applies, choosing from label 1 for active, label 0 for inactive

Example cases with answers are listed next.
CCC[C@H]1CC2=C(C[C@@H](CC)CC3=C1C(=O)OC3=O)C(=O)OC2=O; label 0
C=C(C)[C@H]1CC=C(C(=O)O)CC1; label 0
Oc1c(Cl)cc(Cl)c2cccnc12; label 1
COc1cc(C(=O)NCc2ccc(OCCN(C)C)cc2)cc(OC)c1OC; label 0
CC1(C)C(=O)C=C[C@@]2(C)C1=C(O)C(=O)[C@]1(C)C2CC[C@@]2(C)[C@H](c3ccoc3)C[C@H]3O[C@]321 (stereo partly specified); label 0
COc1ccc(C(Cl)=C(c2ccc(OC)cc2)c2ccc(OC)cc2)cc1; label 0

Could you kindly confirm the outcome this assay logged for "O=C(O)CF" ? label 0

Could you kindly confirm the outcome this assay logged for CC(C)=CCC[C@](C)(O)C1CC=C(C)CC1 (stereo partly specified) ? label 0

* * *

- procedure-text: chemical genetic growth profiling, strain panel (AID 1159580);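 further: tested at 20 µM; growth read once vehicle control cultures reached saturation at 30 °C; 1 = growth at the plate median or of vehicle wells; lower values mean less growth of the strain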
- particulars: S. cerevisiae deletion strains, growth OD, locus YPL051W, strain arl3
In all, about 5,500 compounds went through this assay and about 2,000 (36%) were called active. Another 18% or so got no clear call; they are omitted. Cut-off read from the data, not from the text of the source: active = normalized growth mostly below about 0.91 (no sharp cut-off); inconclusive = no clear call, values can overlap the other calls; inactive = mostly above about 0.92. The list shows a part of the results.
Please state which outcome applies, choosing from true = active, false = inactive

C=CCC1(C(C)CCC)C(=O)N=C(S)NC1=O (centres undefined); false

Consider now this further molecule.
Could you kindly confirm the outcome this assay logged for CO[C@H]1/C=C/O[C@@]2(C)Oc3c(C)c(O)c4c(O)c(c5c(nc6cc(C)ccn65)c4c3C2=O)NC(=O)/C(C)=C\C=C\[C@H](C)[C@H](O)[C@@H](C)C(O)[C@@H](C)[C@H](OC(C)=O)[C@@H]1C (some centres undefined) ? false

* * *

- procedure-text: chemical genetic growth profiling, strain panel (AID 1159580);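 further: tested at 20 µM; growth read once vehicle control cultures reached saturation at 30 °C; 1 = growth at the plate median or of vehicle wells; lower values mean less growth of the strain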
- particulars: S. cerevisiae deletion strains, growth OD, locus YNL322C, strain KRE1 (second series)
Out of some 5,500 compounds screened, about 2,000 (36%) were called active. Inconclusive results (about 18%) are left out. Rule as the data show it: active = normalized growth mostly below about 0.91 (no sharp cut-off); inconclusive = no clear call, values can overlap the other calls; inactive = mostly above about 0.92. The list shows a part of the results.
Please state which outcome applies, choosing from class 1 = active, class 0 = inactive

COc1cccc(/C=C/C(=O)O)c1C(C)C; class 0
C=CCC1(C(C)CCC)C(=O)N=C(S)NC1=O (stereo unspecified); class 0
Nc1ncnc2c1ncn2[C@@H]1O[C@H](CO)[C@@H](O)[C@H]1O; class 0

Could you kindly confirm the outcome this assay logged for "CC(=O)NCCCCCC(=O)O" ? class 0

Could you kindly confirm the outcome this assay logged for "O=C(O)/C=C/C=C/c1ccccc1" ? class 1

Could you kindly confirm the outcome this assay logged for CC(C)(C)NCC(O)c1ccccc1Cl (stereo unspecified) ? class 0

Could you kindly confirm the outcome this assay logged for CO[C@H]1/C=C/O[C@@]2(C)Oc3c(C)c(O)c4c(O)c(c5c(nc6cc(C)ccn65)c4c3C2=O)NC(=O)/C(C)=C\C=C\[C@H](C)[C@H](O)[C@@H](C)C(O)[C@@H](C)[C@H](OC(C)=O)[C@@H]1C (stereo partly specified) ? class 0

Could you kindly confirm the outcome this assay logged for "Nc1ncn([C@@H]2O[C@H](CO)[C@@H](O)[C@H]2O)c(=O)n1" ? class 0

Could you kindly confirm the outcome this assay logged for O=c1[nH]c(=O)n(C2C[C@@H](O)[C@@H](CO)O2)cc1F (stereo partly specified) ? class 0

Could you kindly confirm the outcome this assay logged for Nc1ncnc2c1ncn2C1C[C@H](O)[C@@H](CO)O1 (stereo partly specified) ? class 0

Could you kindly confirm the outcome this assay logged for CCCC(C)C1(CC)C(=O)NC(=O)NC1=O (stereo unspecified) ? class 0
